Organism: Rattus norvegicus
assayNotes: Open TG-GATES - Regimen: Single
Assay type: toxicity, organism-based, Sprague-Dawley
Set-up: regimen Single, gender Male, age 6 weeks
testSettings: in vivo, po, 10 mg/kg, 3 h, tissue Plasma, route gavage, dose level Low
Here, each record is paired with measured gamma-GTP data.
The reply should be a number in IU/L, with the unit left off.

Known results for compounds:
INSERT INTO assay_data (compound, unitdescriptor, measured) VALUES
  ('CN(C)CCCN1c2ccccc2CCc2ccc(Cl)cc21', 'IU/L', 1.2),
  ('CC(C)OC(=O)C(C)(C)Oc1ccc(C(=O)c2ccc(Cl)cc2)cc1 [FENOFIBRATE]', 'IU/L', 1.4),
  ('CN(C)CCN(Cc1cccs1)c1ccccn1', 'IU/L', 1.2),
  ('CC1=C(/C=C/C(C)=C/C=C/C(C)=C/CO)C(C)(C)CCC1', 'IU/L', 2.2);

Exercise: Using the record for CN(C)CCCN1c2ccccc2CCc2ccccc21 , state its measured gamma-GTP.
Solution: 1.2

---

Here, each record is paired with measured gamma-GTP data.
Species: Rattus norvegicus
assayNotes: Open TG-GATES - Regimen: Single
Format: toxicity, organism-based, Sprague-Dawley
Design: regimen Single, gender Male, age 6 weeks
testSettings: in vivo, po, 0 mg/kg, 9 h, tissue Plasma, route gavage, dose level Control
Your reply should be a number followed by the unit it is expressed in.

INSERT INTO measurements (molecule, measuredendpoint, measured) VALUES
  ('CC/C(=C(\c1ccccc1)c1ccc(OCCN(C)C)cc1)c1ccccc1', 'gamma-GTP', '1.6 IU/L'),
  ('CN(C)CCCN1c2ccccc2CCc2ccccc21', 'gamma-GTP', '1 IU/L'),
  ('CN1C(=O)CN=C(c2ccccc2)c2cc(Cl)ccc21', 'gamma-GTP', '1.8 IU/L'),
  ('COc1cc2c(c(OC)c1OC)-c1ccc(OC)c(=O)cc1[C@@H](NC(C)=O)CC2', 'gamma-GTP', '1.6 IU/L'),
  ('CCOc1ccc(NC(=O)CC(C)O)cc1 (stereo not drawn)', 'gamma-GTP', '1.4 IU/L'),
  ('C[C@@H]1C[C@H]2[C@@H]3CCC4=CC(=O)C=C[C@]4(C)[C@@]3(F)[C@@H](O)C[C@]2(C)[C@@]1(O)C(=O)CO', 'gamma-GTP', '0.8 IU/L');

Exercise: Using the record for CCOC(=O)CCC(=O)O[C@H]1[C@H](O[C@@H]2[C@@H](C)[C@H](O[C@H]3C[C@@](C)(OC)[C@@H](O)[C@H](C)O3)[C@@H](C)C(=O)O[C@H](CC)[C@@](C)(O)[C@H](O)[C@@H](C)C(=O)[C@H](C)C[C@@]2(C)O)O[C@H](C)C[C@@H]1N(C)C [ERYTHROMYCIN ETHYLSUCCINATE] , state its measured gamma-GTP.
Solution: 1 IU/L

Exercise: Using the record for CCCNC(=O)NS(=O)(=O)c1ccc(Cl)cc1 [CHLORPROPAMIDE] , state its measured gamma-GTP.
Solution: 1 IU/L

Exercise: Using the record for NNC(=O)c1ccncc1 , state its measured gamma-GTP.
Solution: 1 IU/L

Exercise: Using the record for COc1ccc2[nH]c([S+]([O-])Cc3ncc(C)c(OC)c3C)nc2c1 (stereo not drawn) , state its measured gamma-GTP.
Solution: 1.4 IU/L

Exercise: Using the record for Cc1ccc(C)c(OCCCC(C)(C)C(=O)O)c1 , state its measured gamma-GTP.
Solution: 1.2 IU/L

Exercise: Using the record for CN(C)CCN(Cc1cccs1)c1ccccn1 , state its measured gamma-GTP.
Solution: 1 IU/L

Exercise: Using the record for O=C(CCCN1CCC(O)(c2ccc(Cl)cc2)CC1)c1ccc(F)cc1 , state its measured gamma-GTP.
Solution: 1.8 IU/L

Exercise: Using the record for CC(C)OC(=O)C(C)(C)Oc1ccc(C(=O)c2ccc(Cl)cc2)cc1 [FENOFIBRATE] , state its measured gamma-GTP.
Solution: 1 IU/L

Exercise: Using the record for NC(N)=Nc1nc(CSCCC(N)=NS(N)(=O)=O)cs1 , state its measured gamma-GTP.
Solution: 0.8 IU/L

Exercise: Using the record for CC1=C(/C=C/C(C)=C/C=C/C(C)=C/CO)C(C)(C)CCC1 , state its measured gamma-GTP.
Solution: 4.4 IU/L

Exercise: Using the record for COC1=CC(=O)C[C@@H](C)[C@]12Oc1c(Cl)c(OC)cc(OC)c1C2=O , state its measured gamma-GTP.
Solution: 1.2 IU/L

Exercise: Using the record for CN(C)CCCN1c2ccccc2CCc2ccc(Cl)cc21 , state its measured gamma-GTP.
Solution: 1 IU/L
